Data credit: PubChem BioAssay (NCI)

- System: OVCAR-5 ovarian
- experiment.notes: NCI tumour cell line growth inhibition, 48 h
assay.metric: TGI

compound: O=C(O)c1ccc(Nc2c3ccccc3nc3ccccc23)cc1
TGI: > 100 µM

compound: Cc1cc(CC(O)c2ccc(Cl)c(Cl)c2)nc(=O)[nH]1 (stereo not drawn)
TGI: > 100 µM

compound: Cc1cc(C)nc(NC(=O)c2ccc(Br)s2)c1
TGI: 62.4 µM

compound: COc1cc2cc3c4c(cc(OC)c(OC)c4c2cc1OC)CCN3C(=O)OCCN1CCNCC1
TGI: 31.9 µM

Query: # query: TGI of entry "CCn1c(-c2nonc2N)nc2c(C#CC(C)(C)O)nc(OC[C@H](N)c3ccccc3)cc21"
Reply: 9.99 µM

Query: # query: TGI of entry CCCCN(CCCC)CC(O)c1cc(-c2ccc(C(F)(F)F)cc2)nc(-c2ccc(C(F)(F)F)cc2)c1 (stereo not drawn)
Reply: > 100 µM

Query: # query: TGI of entry OC1(C(F)(F)F)OCCN=C1C(F)(F)F (stereo not drawn)
Reply: > 100 µM

Query: # query: TGI of entry "Cc1ccc(S(=O)(=O)N(CC(=O)O)c2ccccc2)cc1"
Reply: > 100 µM

Query: # query: TGI of entry "CC1=C(C(=O)Nc2ccccc2)C(c2ccccc2)C(C(=O)Nc2ccccc2)=C(C)N1"
Reply: > 100 µM

Query: # query: TGI of entry COc1ccc2c(c1)CCCC(Br)C2=O (stereo not drawn)
Reply: 20.8 µM

Query: # query: TGI of entry "CN(C)CCCNC(=O)c1cc2[nH]c3c(cnc4ccc([N+](=O)[O-])cc43)c(=O)c2n1C"
Reply: 31.6 µM

###

- System: ACHN renal
- experiment.notes: NCI tumour cell line growth inhibition, 48 h
# reported TGI; entries follow

Examples with answers:
compound: C=C(CCC/C(C)=C/C=C/[C@]1(C)CCCc2ccoc21)CC(=O)O
test.value: > 100 µM
--
compound: Cc1cc(C)nc(NC(=O)c2ccc(Br)s2)c1
test.value: > 100 µM

Query: # query: TGI of entry "O=C1NC(NNc2ccccc2)=N/C1=C\c1ccccc1O"
Reply: > 100 µM

Query: # query: TGI of entry "O=S1(=O)C[C@H](O)[C@H](O)CS1"
Reply: > 100 µM

Query: # query: TGI of entry CCCCCCCCCCCCOC1C(C(COC2OC(C3COC(C)(C)O3)C3OC(C)(C)OC23)NC(=O)Nc2ccc(C(=O)O)cc2)OC2OC(C)(C)OC21 (configuration not stated)
Reply: 12.2 µM

Query: # query: TGI of entry "Cc1ccc(C)c(C2=C(c3cn(C)c4ccccc34)C(=O)NC2=O)c1"
Reply: > 25 µM

Query: # query: TGI of entry "CC(C)(C)NC(NC(C)(C)C)=C(/C=C(/Cl)[N+](=O)[O-])[N+](=O)[O-]"
Reply: > 100 µM

###

- System: EKVX NSCLC
- experiment.notes: NCI tumour cell line growth inhibition, 48 h
assay.metric: TGI

compound: COc1ccc(N2C(=O)CC(C3CC(C(C)(C)C)CCC3=O)C2=O)cc1 (configuration not stated)
system.name: EKVX NSCLC
TGI: > 100 µM
//
compound: O=C(O)CCC(=O)c1ccc[nH]1
system.name: EKVX NSCLC
TGI: > 100 µM
//
compound: O=c1cc(N2CCOCC2)[nH]c(=O)n1-c1ccc(F)cc1
system.name: EKVX NSCLC
TGI: > 100 µM
//
compound: O=S1(=O)C[C@H](O)[C@H](O)CS1
system.name: EKVX NSCLC
TGI: > 100 µM
//
compound: c1nc(OCC2CCCCC2)c2[nH]cnc2n1
system.name: EKVX NSCLC
TGI: > 100 µM

Query: # query: TGI of entry OCCCCCCCCCCCOc1ccc(C2OCC3(CO2)COC(c2ccc(OCCCCCCCCCCCO)cc2)OC3)cc1 (configuration not stated)
Reply: > 50 µM

Query: # query: TGI of entry CCCCC(C(=O)C(=O)NC1C2CC3CC(C2)CC1C3)C(=O)C(C)C (configuration not stated)
Reply: > 100 µM

###

# reported GI50; entries follow
- System: SNB-75 CNS
- experiment.notes: NCI tumour cell line growth inhibition, 48 h

Examples with answers:
molecule: CC(C)=CCNc1ncnc2c1ncn2C1OC(CO)C(O)C1O (centres undefined)
system.name: SNB-75 CNS
test.value: 2520 nM
//
molecule: CCOC(=O)CCCn1c(SC)nc2[nH]cc(-c3ccccc3)c2c1=O
system.name: SNB-75 CNS
test.value: 15100 nM
//
molecule: COc1ccc(C(C)=O)cc1N1C(=O)C2C(C1=O)C1(c3ccccc3)C(=O)C2(c2ccccc2)C(c2ccc(C)cc2)=C1c1ccc(C)cc1 (centres undefined)
system.name: SNB-75 CNS
test.value: > 100000 nM
//
molecule: COc1cnc2c(c1)C(=O)c1c-2n(CCCNC(C)C)c(=O)c2cc(Cl)ccc12
system.name: SNB-75 CNS
test.value: 146 nM
//
molecule: Cc1cc(I)cc(CN(C)CCCN2CCCCCCC2)c1O
system.name: SNB-75 CNS
test.value: 15400 nM

Query: # query: GI50 of entry CCCCCCCCCCCCOC1C(C(COC2OC(C3COC(C)(C)O3)C3OC(C)(C)OC23)NC(=O)Nc2ccc(C(=O)O)cc2)OC2OC(C)(C)OC21 (centres undefined)
Reply: 2470 nM

Query: # query: GI50 of entry CCC(C)n1ncn(-c2ccc(N3CCN(c4ccc(OCC5COC(Cn6cncn6)(c6ccc(Cl)cc6Cl)O5)cc4)CC3)cc2)c1=O (centres undefined)
Reply: 11400 nM

Query: # query: GI50 of entry "O=C(Nc1nc2ccc(C(F)(F)F)cc2s1)c1cc(Cl)ccc1O"
Reply: 1590 nM

Query: # query: GI50 of entry CCC[CH2][Sn]1([CH2]CCC)[O]N=C(c2ccccc2)C(c2ccccc2)[O]1 (centres undefined)
Reply: 1600 nM

###

- Tested on: IGROV1 ovarian
- experiment.notes: NCI tumour cell line growth inhibition, 48 h
assay.metric: GI50

Query: # query: GI50 of entry CCCCCCCCCCCCOC1C(C(COC2OC(C3COC(C)(C)O3)C3OC(C)(C)OC23)NC(=O)Nc2ccc(C(=O)O)cc2)OC2OC(C)(C)OC21 (centres undefined)
Reply: 2110 nM

Query: # query: GI50 of entry "C=C(CNCc1ccccc1)c1ccc(C(=O)Nc2ccccc2N)cc1"
Reply: 3210 nM

Query: # query: GI50 of entry "CCCCCCCCCCCCCC1=NC(C)(C)CN1C(C)C"
Reply: 1080 nM

Query: # query: GI50 of entry "COc1ccc(/C=C(/C(=O)N2CCN(c3ccccc3)CC2)c2cc(OC)c(OC)c(OC)c2)cc1O"
Reply: 519 nM

Query: # query: GI50 of entry "COc1ccc(-n2cc(-c3cc(OC)c(OC)c(OC)c3)c(C(=O)C(F)(F)F)c2C)cc1"
Reply: 85700 nM

Query: # query: GI50 of entry CCN(CC)c1ccc2c(c1)OC(N)=C(C#N)C2c1cc(OC)c2c(c1)OCO2 (centres undefined)
Reply: 104 nM

Query: # query: GI50 of entry "COc1ccc(CN2C(=O)/C(=C\C(=O)c3ccc(OCCN4CCCCC4)cc3)c3ccccc32)cc1"
Reply: 2080 nM

Query: # query: GI50 of entry "Cc1ccc(C)c(C2=C(c3cn(C)c4ccccc34)C(=O)NC2=O)c1"
Reply: 24800 nM

Query: # query: GI50 of entry "CC(C)=CC/C=C(/C)[C@H]1CC[C@]2(C)[C@@H]1CC[C@@H]1[C@@]3(C)CCCNC(C)(C)[C@@H]3CC[C@]12C"
Reply: 1870 nM

###

- Tested on: HCT-116 colon
- experiment.notes: NCI tumour cell line growth inhibition, 48 h
Mark YES for reported TGI of 40 µM or greater; mark NO for anything smaller.

compound: O=C(Nc1nc2ccc(C(F)(F)F)cc2s1)c1cc(Cl)ccc1O
system.name: HCT-116 colon
assigned.label: NO

With those in mind, consider the next compound.
Query: Would you say COC1(OC)CC2C(=O)N(Cc3ccccc3)C1C(S(=O)(=O)c1ccccc1)C2S(=O)(=O)c1ccccc1 (stereo unspecified) shows TGI at minimum 40 µM?
Reply: NO

###

- System: A549 NSCLC
- experiment.notes: NCI tumour cell line growth inhibition, 48 h
assay.metric: TGI

molecule: COc1cc(C2SCC(=O)N2c2ccccn2)cc(OC)c1OC (stereo unspecified)
assay.metric: TGI
test.value: > 100 µM
--
molecule: N=C1/C(=C/c2ccc(F)cc2)C(=O)N=C2SC=NN12
assay.metric: TGI
test.value: > 100 µM
--
molecule: CN(C)N=Nc1ccc(NC=O)cc1
assay.metric: TGI
test.value: > 100 µM
--
molecule: S=C1NC2(CCCCCC2)NN1c1ccccc1
assay.metric: TGI
test.value: > 100 µM
--
molecule: COc1ccc(C2COc3cc(OC(C)=O)c(OC(C)=O)cc3C2)cc1 (stereo unspecified)
assay.metric: TGI
test.value: 52.5 µM
--
molecule: O=C(O)c1ccc(N=C(C(=Nc2ccc(C(=O)O)cc2)c2ccccc2)c2ccccc2)cc1
assay.metric: TGI
test.value: > 100 µM

Query: # query: TGI of entry CC(C)(C)[Si](C)(C)OCC1OC(n2ccc(N)nc2=O)C(O[Si](C)(C)C(C)(C)C)C1O[Si](C)(C)C(C)(C)C (stereo unspecified)
Reply: 11.6 µM

Query: # query: TGI of entry "Nc1ncnc2c1ccn2C/C=C\CO"
Reply: > 100 µM

Query: # query: TGI of entry O=C1C2CC=CCC2C(=O)N1n1c(Cc2ccc(Cl)cc2)n[nH]c1=O (stereo unspecified)
Reply: > 100 µM

Query: # query: TGI of entry "c1nc(OCC2CCCCC2)c2[nH]cnc2n1"
Reply: > 100 µM

Query: # query: TGI of entry "CC(C)C(=O)[C@@]1(C)SC[C@H]2CCN=C21"
Reply: > 100 µM
